- ASSAY_NAME: solvent given as SMILES
- CONDITION_LABEL: in CC(C)=O
The label class 1 is reserved for absorption maximum strictly under 400 nm; class 0 covers values equal to or above it.

(Q) Strictly below 400 nm in absorption maximum? `CCC1=C(C)C(=O)n2c1cc1c(C)c(CC)c(C)n1c2=O`
(A) class 0

(Q) Strictly below 400 nm in absorption maximum? `CCC1=C(C)C2=Cc3cc(I)cn3[B-](F)(F)[N+]2=C1C`
(A) class 0

(Q) Strictly below 400 nm in absorption maximum? `CCN(CC)c1ccc2cc(/C=C/c3cccc[n+]3CCCS(=O)(=O)[O-])c(=O)oc2c1`
(A) class 0

(Q) Strictly below 400 nm in absorption maximum? `O=C(N/N=C/c1ccccc1O)c1ccccc1O`
(A) class 1

(Q) Strictly below 400 nm in absorption maximum? `COc1ccc2c(CC(=O)NN)coc2c1`
(A) class 1

###

- ASSAY_NAME: solvent given as SMILES
- CONDITION_LABEL: in CO
Please mark met if the recorded absorption maximum is equal to or greater than 400 nm, and not met if it falls below.

(Q) Form field: absorption maximum at least 400 nm? Entry: `COc1ccc(/C=C/C(=O)c2ccccc2O)cc1OC`
(A) not met

(Q) Form field: absorption maximum at least 400 nm? Entry: `C1=CN2C[n+]3cccc(OCc4ccccc4)c3N=C2C(OCc2ccccc2)=C1`
(A) met

(Q) Form field: absorption maximum at least 400 nm? Entry: `c1ccc2cc(-n3cnc4ccccc43)ccc2c1`
(A) not met

(Q) Form field: absorption maximum at least 400 nm? Entry: `CCN(CC)c1ccc2cc(/C=C(\C#N)c3nc4ccccc4s3)c(=O)oc2c1`
(A) met

(Q) Form field: absorption maximum at least 400 nm? Entry: `CCc1c(C)c2n(c1C)[B-](F)(F)[N+]1=C(c3ccc[nH]3)c3ccccc3C1=C2`
(A) met

(Q) Form field: absorption maximum at least 400 nm? Entry: `COCCOCCOCCOc1cc(C=O)c(OCCOCCOCCOC)cc1C=O`
(A) not met

(Q) Form field: absorption maximum at least 400 nm? Entry: `COC(=O)c1ccc(C#Cc2ccc(N(C)C)cc2)cc1`
(A) not met

(Q) Form field: absorption maximum at least 400 nm? Entry: `COC(=O)/C(C#N)=C/c1cn(-c2ccccc2)nc1-c1ccc([N+](=O)[O-])cc1`
(A) not met

(Q) Form field: absorption maximum at least 400 nm? Entry: `Nc1ccc2c(c1)C(=O)c1ccc(N)cc1C2=O`
(A) met

(Q) Form field: absorption maximum at least 400 nm? Entry: `Cc1ccc(-c2nc(-c3cccc(C#N)c3)[nH]c2-c2ccc(C)cc2)cc1`
(A) not met

(Q) Form field: absorption maximum at least 400 nm? Entry: `COc1ccc2c(=O)c3c([nH]c2c1)-c1cc(Cl)ccc1NC3(C)C`
(A) met

(Q) Form field: absorption maximum at least 400 nm? Entry: `CC1(C)C(/C=C/C2=C(c3ccc(C(=O)O)cc3)C(=C/C=C3/N(CCCS(=O)(=O)[O-])c4ccc5ccccc5c4C3(C)C)/CCC2)=[N+](CCCS(=O)(=O)[O-])c2ccc3ccccc3c21`
(A) met

(Q) Form field: absorption maximum at least 400 nm? Entry: `CC1(C)C(/C=C/C2=C(Cl)C(=C/C=C3/N(Cc4ccc(F)cc4)c4ccccc4C3(C)C)/CCC2)=[N+](Cc2ccc(F)cc2)c2ccccc21`
(A) met

(Q) Form field: absorption maximum at least 400 nm? Entry: `N#Cc1c(-n2nnc3cc(Cl)ccc32)n([C@H]2C[C@H](O)[C@@H](CO)O2)c2ncnc(N)c12`
(A) not met

(Q) Form field: absorption maximum at least 400 nm? Entry: `C[N+]1=C(/C=C/C2=C3Oc4c(cc5c6c4CCCN6CCC5)C(c4ccccc4C(=O)O)=C3CCC2)C(C)(C)c2ccccc21`
(A) met

(Q) Form field: absorption maximum at least 400 nm? Entry: `CCCC(=O)c1c2c(c(C(=O)CCC)c3c1OC(CC(=O)OC)(C(=O)OC)O3)OCO2`
(A) met

(Q) Form field: absorption maximum at least 400 nm? Entry: `CCC1=C(C)C2=C(C)c3c(C)c(-c4csc(N5CCOCC5)n4)c(C)n3[B-](F)(F)[N+]2=C1C`
(A) met

(Q) Form field: absorption maximum at least 400 nm? Entry: `Cc1cc(C)c(C2=C3C=C(/C=C/C(=O)OC(C)(C)C)C=[N+]3[B-](F)(F)n3c2ccc3N2CCOCC2)c(C)c1`
(A) met

(Q) Form field: absorption maximum at least 400 nm? Entry: `COc1ccccc1C1=C2C(C)=CC(C)=[N+]2[B-](F)(F)n2c(C)cc(C)c21`
(A) met

(Q) Form field: absorption maximum at least 400 nm? Entry: `C/C(=C\c1ccc(C)cc1)c1nc2ccccc2o1`
(A) not met

(Q) Form field: absorption maximum at least 400 nm? Entry: `N#C/C(=C\c1ccc(Cl)cc1)c1nc2ccccc2s1`
(A) not met

(Q) Form field: absorption maximum at least 400 nm? Entry: `CN(C)c1ccc(/C=C(\C#N)c2nc3ccccc3s2)cc1`
(A) met

(Q) Form field: absorption maximum at least 400 nm? Entry: `CN(C)c1nc(N)c2nc(C#N)n(Cc3ccccc3)c2n1`
(A) not met

(Q) Form field: absorption maximum at least 400 nm? Entry: `Nc1ccc2ccc3cccc4ccc1c2c34`
(A) not met

(Q) Form field: absorption maximum at least 400 nm? Entry: `Cc1ccc2occ(CC(=O)NN)c2c1`
(A) not met

(Q) Form field: absorption maximum at least 400 nm? Entry: COC(=O)C(NC(=O)OC(C)(C)C)c1ccc2oc(-c3cccc(Oc4ccccc4)c3)nc2c1 (centres undefined)
(A) not met

(Q) Form field: absorption maximum at least 400 nm? Entry: `CCC1=C(C)C2=Cc3ccccc3B(O)N2C1=O`
(A) not met

(Q) Form field: absorption maximum at least 400 nm? Entry: `F[B-]1(F)n2c(cc3c4ccccc4oc32)C(c2ccccc2)=C2C=c3c(oc4ccccc34)=[N+]21`
(A) met

(Q) Form field: absorption maximum at least 400 nm? Entry: `COc1c(/C=N/Nc2ccc(C#N)cc2)ccc2ccccc12`
(A) not met

(Q) Form field: absorption maximum at least 400 nm? Entry: `Cc1ccc(-n2c(-c3ccccc3O)nc(-c3ccccc3O)c2-c2ccccc2O)cc1`
(A) not met

(Q) Form field: absorption maximum at least 400 nm? Entry: `COc1ccc(/C=C/c2ccc(-c3nnc(-c4ccc(-c5cc6ccccc6s5)cc4)o3)cc2)cc1`
(A) not met

(Q) Form field: absorption maximum at least 400 nm? Entry: `CCc1c(C)[nH]c(C2=[N+]3C(=C(C)c4c(C)c(CC)c(C)n4[B-]3(F)F)c3ccccc32)c1C`
(A) met

(Q) Form field: absorption maximum at least 400 nm? Entry: `COc1ccc2c(c1)N(c1ccc(C)cc1)c1cc3c(cc1=N2)Oc1c(cc(C(C)(C)C)cc1C(C)(C)C)N=3`
(A) met

(Q) Form field: absorption maximum at least 400 nm? Entry: `COc1ccc(-n2nc(C#N)c(N3CCCC3)n2)cc1`
(A) not met

###

- ASSAY_NAME: solvent given as SMILES
- CONDITION_LABEL: in CC(C)CO
READOUT_LABEL: absorption maximum (nm)
# value in nm; strip the unit string

For `COCCOCCOCCOCCOc1ccc(OCCOCCOCCOCCOC)c(C=O)c1` the compound record lists absorption maximum as 350

For `COCCOCCOCCOc1cc(C=O)c(OCCOCCOCCOC)cc1C=O` the compound record lists absorption maximum as 390

For `O=c1oc2ccccc2cc1-c1nc2ccccc2o1` the compound record lists absorption maximum as 353

For `COc1cc(C(=O)O)ccc1O` the compound record lists absorption maximum as 292.4

###

Field: absorption maximum. Provide a value for each of the compounds that follow.
- ASSAY_NAME: solvent given as SMILES
- CONDITION_LABEL: in C1CCOC1
# value in nm; strip the unit string

For `c1ccc2c(P(c3c4ccccc4cc4ccccc34)c3c4ccccc4cc4ccccc34)c3ccccc3cc2c1` the compound record lists absorption maximum as 437

For `CC(=O)O[B-]1(OC(C)=O)OC(/C=C/c2cccc3ccccc23)=CC(/C=C/c2cccc3ccccc23)=[O+]1` the compound record lists absorption maximum as 464

For `CCN(CC)c1ccc2cc(/C=C/c3cccc[n+]3CCCS(=O)(=O)[O-])c(=O)oc2c1` the compound record lists absorption maximum as 513

For `COC(=O)c1cc(=O)n(C)c2cc(-c3ccc(OC)cc3)sc12` the compound record lists absorption maximum as 402

For `CCCCCCCCCCCCOc1cc2cc(N(C)C)ccc2cc1C#N` the compound record lists absorption maximum as 361

###

- ASSAY_NAME: solvent given as SMILES
- CONDITION_LABEL: in CC#N
READOUT_LABEL: absorption maximum

For `CC(C)(C)c1ccc(-c2sc3c(-c4ccc(C(C)(C)C)cc4)c4n(c3c2-c2ccc(C(C)(C)C)cc2)[B-](F)(F)[N+]2=Cc3c(-c5ccc(C(C)(C)C)cc5)c5sc(-c6ccc(C(C)(C)C)cc6)c(-c6ccc(C(C)(C)C)cc6)c5n3[B-](F)(F)[N+]2=C4)cc1` the molecule record lists absorption maximum as 574 nm

For `CN(C)c1nc(N(C)C)c2nc(C#N)n(Cc3ccccc3)c2n1` the molecule record lists absorption maximum as 344 nm

For C=CC1CN2CCC1CC2[C@@H](OCc1ccccc1)c1ccnc2ccc(O)cc12 (some centres undefined) the molecule record lists absorption maximum as 335 nm

For `CCN(CC)c1ccc(-c2ccc(-c3nc(C#N)c4ccccc4n3)s2)cc1` the molecule record lists absorption maximum as 397 nm

For `F[B-]1(F)n2c(c3cccc4cccc2c43)=Nc2ccc3ccccc3[n+]21` the molecule record lists absorption maximum as 481 nm

For C[P+]1(c2ccccc2)C2=C(c3ccccc31)S(=O)(=O)c1ccccc12 (centres undefined) the molecule record lists absorption maximum as 388 nm

For `COC(=O)c1nc(-c2cccc3ccccc23)oc1C` the molecule record lists absorption maximum as 308 nm

For `CCOC(=O)COc1ccc(/C=C/C2=C3c4ccccc4C(c4ccc[nH]4)=[N+]3[B-](F)(F)n3ccc(C)c32)cc1` the molecule record lists absorption maximum as 577 nm

For `C[N+]1=C(/C=C/C2=C3Oc4c(cc5c6c4CCCN6CCC5)C(c4ccccc4C(=O)O)=C3CCC2)C(C)(C)c2ccccc21` the molecule record lists absorption maximum as 724 nm

For `Cc1ccc(-c2ccc(/C=C/c3ccc(Br)n3C)cn2)nc1` the molecule record lists absorption maximum as 373 nm

For `C(=C\c1nc2ccccc2[nH]1)/c1ccc(/C=C/c2nc3ccccc3[nH]2)cc1` the molecule record lists absorption maximum as 382 nm

For `Cc1cc(-c2ccc(C(C)(C)C)cc2)cc(C)[o+]1` the molecule record lists absorption maximum as 345 nm

For `CC(C)[Si]1(C(C)C)c2cc(N(C)C)ccc2-c2ccc(C(F)(F)F)cc21` the molecule record lists absorption maximum as 337 nm

For `CN(C)c1ccc(-c2nc3nc4ccccc4nc3n2-c2ccc(C(C)(C)C)cc2)cc1` the molecule record lists absorption maximum as 411 nm

For `Cc1cccc2nc3c(=O)n(C)c(=O)nc-3n(C)c12` the molecule record lists absorption maximum as 439 nm

For `CN(C)c1ccc(C2=Cc3ccc4ccccc4[n+]3[B-](F)(F)O2)cc1` the molecule record lists absorption maximum as 468 nm

For `Nc1ccc2c(c1)Cc1ccccc1-2` the molecule record lists absorption maximum as 325 nm

For `CCc1c(C)[nH]c(C2=[N+]3C(=C(C)c4c(C)c(CC)c(C)n4[B-]3(F)F)c3ccccc32)c1C` the molecule record lists absorption maximum as 610 nm

For `N#Cc1nn(-c2ccccc2)nc1N1CCCC1` the molecule record lists absorption maximum as 340 nm
